- TARGET_OR_TEST_SYSTEM: wild-type human carbonic anhydrase II (hCAII) protein (human, UniProt P00918 4-259)
- RUN_DESCRIPTION: cell-based or functional assay
*: point of attachment. Benzoyl(4-SO2NH2) = NS(=O)(=O)c1ccc(C(=O)*)cc1
ENDPOINT_NAME: IC50 (µM), hCAII functional assay
Hi! Could you send only the number? It should be in µM, unit omitted.

Worked examples follow.
{Benzoyl(4-SO2NH2)}-HAAAE-NH2 (SMILES C[C@H](NC(=O)[C@H](C)NC(=O)[C@H](Cc1c[nH]cn1)NC(=O)c1ccc(S(N)(=O)=O)cc1)C(=O)N[C@@H](C)C(=O)N[C@@H](CCC(=O)O)C(N)=O) [(SAB)HAAAE] = 0.148
{Benzoyl(4-SO2NH2)}-LAAAE-NH2 (SMILES CC(C)C[C@H](NC(=O)c1ccc(S(N)(=O)=O)cc1)C(=O)N[C@@H](C)C(=O)N[C@@H](C)C(=O)N[C@@H](C)C(=O)N[C@@H](CCC(=O)O)C(N)=O) [(SAB)LAAAE] = 0.0284

The record that follows has no IC50 (µM), hCAII functional assay shown yet.
Assign IC50 (µM), hCAII functional assay to the following record: {Benzoyl(4-SO2NH2)}-FAAAE-NH2 (SMILES C[C@H](NC(=O)[C@H](C)NC(=O)[C@H](Cc1ccccc1)NC(=O)c1ccc(S(N)(=O)=O)cc1)C(=O)N[C@@H](C)C(=O)N[C@@H](CCC(=O)O)C(N)=O) [(SAB)FAAAE] 0.045
